assayed-target: DDR2 (Homo sapiens)
Sequence (Q16832 563-849 limits assumed): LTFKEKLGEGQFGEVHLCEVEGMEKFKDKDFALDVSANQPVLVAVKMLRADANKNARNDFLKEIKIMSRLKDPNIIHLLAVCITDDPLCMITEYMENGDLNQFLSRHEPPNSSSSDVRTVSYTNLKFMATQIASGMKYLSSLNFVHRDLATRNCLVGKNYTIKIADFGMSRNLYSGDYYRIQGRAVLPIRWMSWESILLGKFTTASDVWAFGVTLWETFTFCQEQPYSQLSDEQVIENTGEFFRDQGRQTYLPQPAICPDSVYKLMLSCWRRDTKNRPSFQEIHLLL
Quick list: IC50 per entry.
readout-kind: IC50 (nM)

>>> df
                            smiles_notation  value_observed
0  Cc1nc2sc(-c3ccnc(Nc4cccc(N5CCN(CCO)CC5)c4)n3)c(-c3ccccc3)n2c(=O)c1C(C)C             292
1  CN1CCN(c2ccc(Nc3nccc(-c4sc5nccc(=O)n5c4-c4ccccc4O)n3)cc2)CC1            6.37
2  NS(=O)(=O)c1cccc(Nc2nccc(-c3sc4nccc(=O)n4c3-c3cccc(Cl)c3)n2)c1            61.6
3  COc1ccc(-c2c(-c3ccnc(Nc4cccc(S(N)(=O)=O)c4)n3)sc3nccc(=O)n23)cc1            40.6
4  CN1CCN(c2ccc(Nc3nccc(-c4sc5nccc(=O)n5c4-c4ccc(O)cc4)n3)cc2)CC1              15
5  COc1ccccc1-c1c(-c2ccnc(Nc3cccc(N4CCN(CCO)CC4)c3)n2)sc2nccc(=O)n12            24.4
6  CCc1cc(=O)n2c(-c3ccccc3)c(-c3ccnc(Nc4cccc(N5CCN(CCO)CC5)c4)n3)sc2n1            11.6

---

assayed-target: UniProt Q03146
test-protocol: Cellular assay: inhibition of Collagen I-induced DDR1 autophosphorylation in HEK293T cells transiently transfected with DDR1 plasmid (Western blot)
condition-details: pcDNA3.1 DDR1 WT mouse plasmid, compound 1 h, then 10 µg/mL Collagen I 1 h, P-DDR1 (Y513), read-out: pDDR1 EC50
pEC50: −log10 of the molar value.
readout-kind: pEC50

>>> print(df.to_string())
                                   molecule  assayed_target  readout_kind  value_observed
0  CN1CCN(c2ccc(Nc3nccc(-c4sc5nccc(=O)n5c4-c4cccc(Cl)c4)n3)cc2)CC1 [Compound 42]  UniProt Q03146         pEC50            7.51
1  CN1CCN(c2ccc(Nc3nccc(-c4sc5nccc(=O)n5c4-c4ccccc4)n3)cc2)CC1 [Compound 34]  UniProt Q03146         pEC50            7.80
2  O=c1ccnc2sc(-c3ccnc(Nc4cccc(N5CCN(CCO)CC5)c4)n3)c(-c3ccc(F)c(C(F)(F)F)c3)n12 [Compound 63]  UniProt Q03146         pEC50            6.85
3  CCOC(=O)c1cnc2sc(-c3ccnc(Nc4cccc(N5CCN(CCO)CC5)c4)n3)c(-c3ccccc3)n2c1=O [Compound 71]  UniProt Q03146         pEC50            7.46

---

Measured EC50 accompanies every entry in the list below.
assayed-target: DDR1 (Mus musculus, UniProt Q03146)
Sequence (Q03146 20-911): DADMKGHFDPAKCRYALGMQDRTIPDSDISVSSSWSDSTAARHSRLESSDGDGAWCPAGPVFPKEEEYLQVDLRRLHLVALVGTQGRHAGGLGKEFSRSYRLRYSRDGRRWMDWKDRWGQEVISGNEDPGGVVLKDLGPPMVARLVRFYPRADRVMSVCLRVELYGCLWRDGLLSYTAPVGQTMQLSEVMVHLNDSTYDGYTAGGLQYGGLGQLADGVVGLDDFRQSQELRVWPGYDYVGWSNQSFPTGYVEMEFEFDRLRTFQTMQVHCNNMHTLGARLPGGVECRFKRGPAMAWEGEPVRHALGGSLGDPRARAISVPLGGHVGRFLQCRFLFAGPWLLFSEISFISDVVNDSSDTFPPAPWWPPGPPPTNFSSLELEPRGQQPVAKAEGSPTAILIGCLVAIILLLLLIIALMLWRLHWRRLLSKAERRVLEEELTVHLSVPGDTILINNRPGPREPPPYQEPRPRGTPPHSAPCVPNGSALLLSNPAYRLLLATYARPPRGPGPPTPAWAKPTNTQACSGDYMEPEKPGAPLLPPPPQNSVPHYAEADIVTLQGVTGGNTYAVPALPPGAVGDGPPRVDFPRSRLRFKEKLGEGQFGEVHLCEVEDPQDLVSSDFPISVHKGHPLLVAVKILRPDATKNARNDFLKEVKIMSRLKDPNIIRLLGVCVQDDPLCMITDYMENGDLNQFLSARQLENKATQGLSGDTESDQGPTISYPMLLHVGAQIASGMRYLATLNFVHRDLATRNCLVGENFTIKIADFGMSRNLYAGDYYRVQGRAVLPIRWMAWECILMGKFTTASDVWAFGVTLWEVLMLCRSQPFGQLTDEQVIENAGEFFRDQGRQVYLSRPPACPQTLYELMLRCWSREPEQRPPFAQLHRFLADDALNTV
test-protocol: Cellular assay: inhibition of Collagen I-induced DDR1 autophosphorylation in HEK293T cells transiently transfected with DDR1 plasmid (Western blot)
condition-details: pcDNA3.1 DDR1 WT mouse plasmid, compound 1 h, then 10 µg/mL Collagen I 1 h, P-DDR1 (Y513), read-out: pDDR1 EC50
readout-kind: EC50 (nM)

In [3]: df
Out[3]:
                                    molecule                       assayed_target  value_observed
 0  NS(=O)(=O)c1cccc(Nc2nccc(-c3sc4nccc(=O)n4c3-c3cccc(Cl)c3)n2)c1 [Compound 40]  DDR1 (Mus musculus, UniProt Q03146)             113
 1  COc1ccc(-c2c(-c3ccnc(Nc4ccc(N5CCN(C)CC5)cc4)n3)sc3nccc(=O)n23)cc1 [Compound 54]  DDR1 (Mus musculus, UniProt Q03146)            18.2
 2  NS(=O)(=O)c1cccc(Nc2nccc(-c3sc4nccc(=O)n4c3-c3ccccc3)n2)c1 [Compound 30]  DDR1 (Mus musculus, UniProt Q03146)            87.4
 3  COc1ccc(-c2c(-c3ccnc(Nc4cccc(N5CCN(CCO)CC5)c4)n3)sc3nccc(=O)n23)cc1 [Compound 53]  DDR1 (Mus musculus, UniProt Q03146)            19.3
 4  CCc1c(C)nc2sc(-c3ccnc(Nc4cccc(N5CCN(CCO)CC5)c4)n3)c(-c3ccccc3)n2c1=O [Compound 77]  DDR1 (Mus musculus, UniProt Q03146)            46.8
 5  O=c1ccnc2sc(-c3ccnc(Nc4cccc(N5CCN(CCO)CC5)c4)n3)c(-c3ccc(F)cc3)n12 [Compound 58]  DDR1 (Mus musculus, UniProt Q03146)              28
 6  Cc1cc(=O)n2c(-c3ccccc3)c(-c3ccnc(Nc4cccc(N5CCN(CCO)CC5)c4)n3)sc2n1 [Compound 72]  DDR1 (Mus musculus, UniProt Q03146)              59
 7  O=c1ccnc2sc(-c3ccnc(Nc4cccc(N5CCN(CCO)CC5)c4)n3)c(-c3ccccc3)n12 [Compound 31]  DDR1 (Mus musculus, UniProt Q03146)             192
 8  CN1CCN(c2ccc(Nc3nccc(-c4sc5nccc(=O)n5c4-c4ccccc4Cl)n3)cc2)CC1 [Compound 39]  DDR1 (Mus musculus, UniProt Q03146)            35.3
 9  NS(=O)(=O)c1cccc(Nc2nccc(-c3sc4nccc(=O)n4c3-c3ccc(Cl)c(Cl)c3)n2)c1 [Compound 61]  DDR1 (Mus musculus, UniProt Q03146)            63.2
10  CC(C)c1c(-c2ccnc(Nc3cccc(N4CCN(CCO)CC4)c3)n2)sc2nccc(=O)n12 [Compound 64]  DDR1 (Mus musculus, UniProt Q03146)            58.7
11  COc1ccccc1-c1c(-c2ccnc(Nc3ccc(N4CCN(C)CC4)cc3)n2)sc2nccc(=O)n12 [Compound 48]  DDR1 (Mus musculus, UniProt Q03146)            27.5
12  O=c1ccnc2sc(-c3ccnc(Nc4ccccc4)n3)c(-c3ccccc3)n12 [Compound 29]  DDR1 (Mus musculus, UniProt Q03146)             339
13  COc1ccccc1-c1c(-c2ccnc(Nc3cccc(N4CCN(CCO)CC4)c3)n2)sc2nccc(=O)n12 [Compound 47]  DDR1 (Mus musculus, UniProt Q03146)            27.8
14  NS(=O)(=O)c1cccc(Nc2nccc(-c3sc4nccc(=O)n4c3-c3ccccc3Cl)n2)c1 [Compound 37]  DDR1 (Mus musculus, UniProt Q03146)              36

---

assayed-target: DDR1 (Mus musculus)
Construct: expressed in transfected cells; host or cells: HEK293T
test-protocol: Cellular assay: inhibition of Collagen I-induced DDR1 autophosphorylation in HEK293T cells transiently transfected with DDR1 plasmid (Western blot)
Format: cell-based, human
condition-details: pcDNA3.1 DDR1 WT mouse plasmid, compound 1 h, then 10 µg/mL Collagen I 1 h, P-DDR1 (Y513), read-out: pDDR1 EC50
readout-kind: EC50 (µM)

>>> df
                             smiles_notation  readout_kind  display_unit  value_observed
 0  O=c1ccnc2sc(-c3ccnc(Nc4cccc(N5CCN(CCO)CC5)c4)n3)c(C3CC3)n12          EC50            µM           0.163
 1  CN1CCN(c2ccc(Nc3nccc(-c4sc5nccc(=O)n5c4-c4ccc(O)cc4)n3)cc2)CC1          EC50            µM          0.0211
 2  O=c1ccnc2sc(-c3ccnc(Nc4cccc(N5CCN(CCO)CC5)c4)n3)c(-c3cccc(Cl)c3Cl)n12          EC50            µM          0.0319
 3  O=c1ccnc2sc(-c3ccnc(Nc4cccc(N5CCN(CCO)CC5)c4)n3)c(C3CCOCC3)n12          EC50            µM            0.61
 4  COc1cccc(-c2c(-c3ccnc(Nc4cccc(S(N)(=O)=O)c4)n3)sc3nccc(=O)n23)c1          EC50            µM          0.0998
 5  CN1CCN(c2ccc(Nc3nccc(-c4sc5nccc(=O)n5c4-c4ccccc4O)n3)cc2)CC1          EC50            µM          0.0218
 6  CN1CCN(c2ccc(Nc3nccc(-c4sc5nccc(=O)n5c4-c4cccc(O)c4)n3)cc2)CC1          EC50            µM          0.0122
 7  COc1cccc(-c2c(-c3ccnc(Nc4ccc(N5CCN(C)CC5)cc4)n3)sc3nccc(=O)n23)c1          EC50            µM          0.0192
 8  NS(=O)(=O)c1cccc(Nc2nccc(-c3sc4nccc(=O)n4c3-c3cccc(Cl)c3Cl)n2)c1          EC50            µM          0.0993
 9  COc1cccc(-c2c(-c3ccnc(Nc4cccc(N5CCN(CCO)CC5)c4)n3)sc3nccc(=O)n23)c1          EC50            µM          0.0334
10  O=c1ccnc2sc(-c3ccnc(Nc4cccc(N5CCN(CCO)CC5)c4)n3)c(-c3cccc(Cl)c3)n12          EC50            µM          0.0404
11  CN1CCN(c2ccc(Nc3nccc(-c4sc5nccc(=O)n5c4-c4ccc(Cl)cc4)n3)cc2)CC1          EC50            µM         0.00763
12  COc1ccccc1-c1c(-c2ccnc(Nc3cccc(S(N)(=O)=O)c3)n2)sc2nccc(=O)n12          EC50            µM          0.0306
